Molecular target: UniProt:P14902
Sequence (P14902 whole entry): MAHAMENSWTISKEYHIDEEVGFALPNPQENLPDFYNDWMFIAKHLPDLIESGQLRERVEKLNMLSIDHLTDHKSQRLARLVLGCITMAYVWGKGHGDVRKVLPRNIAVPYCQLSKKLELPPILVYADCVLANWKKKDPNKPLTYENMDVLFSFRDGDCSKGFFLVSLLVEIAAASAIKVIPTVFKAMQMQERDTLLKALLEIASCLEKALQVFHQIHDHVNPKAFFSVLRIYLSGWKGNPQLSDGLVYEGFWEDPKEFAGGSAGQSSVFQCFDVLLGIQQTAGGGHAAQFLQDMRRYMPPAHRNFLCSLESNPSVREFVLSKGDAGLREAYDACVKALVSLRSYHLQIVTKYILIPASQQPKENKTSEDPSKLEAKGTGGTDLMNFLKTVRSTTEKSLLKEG
Test: IDO inhibition assay in HEK293 cells stably expressing human IDO1 (kynurenine, Ehrlich reagent, absorbance 490 nm)
Conditions: 20 hours incubation, read-out: IDO1 HEK Human IC50
pIC50: −log10 of the molar value.
METRIC: pIC50

Please review the entries below; each comes with its answer.
>>> observed_value("Cc1ccc(-c2nnc([C@H](C)[C@H]3CC[C@@H](c4ccnc5ccc(F)cc54)CC3)o2)cc1F")
5.70
>>> observed_value("CCC(Nc1nnc(-c2ccc(OC)cc2)o1)C1CCC(c2ccnc3ccc(F)cc23)CC1 (centres unmarked)")
6.91
>>> observed_value("COc1ccc(-c2csc(N[C@H](C)[C@H]3CC[C@@H](c4ccnc5ccc(F)cc54)CC3)n2)cc1")
6.14
>>> observed_value("C[C@@H](Nc1nnc(-c2ccc(Cl)cc2)o1)[C@H]1CC[C@@H](c2ccnc3ccc(F)cc32)CC1")
7.34
>>> observed_value("C[C@@H](c1nnc(Nc2ccc(F)cc2)s1)[C@H]1CC[C@@H](c2ccnc3ccc(F)cc32)CC1")
6.27

I: C[C@@H](Nc1nnc(-c2ccc(C#N)cc2)[nH]1)[C@H]1CC[C@@H](c2ccnc3ccc(F)cc32)CC1
II: CCC(c1nnc(-c2ccc(OC(C)C)cc2)o1)C1CCC(c2ccnc3ccc(F)cc23)CC1 (centres unmarked)
III: CCC(Nc1nnc(-c2ccc(F)cc2)o1)C1CCC(c2ccnc3ccc(C(F)(F)F)cc23)CC1 (single isomer, unassigned) [Example 62]
Reorder: pIC50, max to min. Returns: the labels arranged in the requested order.
III, I, II
(III: 8.77, I: 7.64, II: 7.16)

1: COc1ccc(-c2nnc(N[C@H](C)[C@H]3CC[C@@H](c4ccnc5ccc(F)cc54)CC3)o2)cc1
2: COCc1nnc(N[C@H](C)[C@H]2CC[C@@H](c3ccnc4ccc(F)cc43)CC2)o1
3: C[C@@H](c1ncc(-c2ccc(F)cc2)o1)[C@H]1CC[C@@H](c2ccnc3ccc(F)cc32)CC1
Rank items: key pIC50, increasing. Returns: the labels arranged in the requested order.
3, 2, 1
